testMethodNotes: pKa determination by automatic spectrophotometric titration
Assay type: physicochemical
appliedConditions: DMSO/0.1 M KCl 2:3 (V/V) solution, DMSO:KCl (0.1 M) = 2:3 (V/V), 25 °C; read-out: pKa2
measuredMetric: pKa
One number for each entry.

Worked examples follow.
>  <compound>
CCc1c(O)c(=O)ccn1CCn1cc(COc2cc(=O)oc3ccccc23)nn1 [Compound 27f]

>  <pKa>
9.8

$$$$
>  <compound>
CCc1c(O)c(=O)ccn1CCCn1cc(COc2cc(=O)oc3ccccc23)nn1 [Compound 27g]

>  <pKa>
9.7

$$$$

For each entry beneath this line, provide reported pKa.
1. CCc1c(O)c(=O)ccn1CCCn1cc(COc2cc3ccccc3oc2=O)nn1 [Compound 27j]
2. Cc1cc(=O)c(O)c(CO)n1CCn1cc(COc2ccc3ccc(=O)oc3c2)nn1 [Compound 27a]
3. CCc1c(O)c(=O)ccn1CCn1cc(COc2cc3ccccc3oc2=O)nn1 [Compound 27i]
4. Cc1cc(=O)c(O)c(C)n1CCn1cc(COc2ccc3ccc(=O)oc3c2)nn1 [Compound 27c]
5. Cc1cc(=O)c(O)c(CO)n1CCCn1cc(COc2cc3ccccc3oc2=O)nn1 [Compound 27k]
6. Cc1cc(=O)c(O)c(C)n1CCCn1cc(COc2ccc3ccc(=O)oc3c2)nn1 [Compound 27d]
7. Cc1cc(=O)c(O)c(CO)n1CCCn1cc(COc2ccc3ccc(=O)oc3c2)nn1 [Compound 27b]
8. CCc1c(O)c(=O)ccn1CCCn1cc(COc2ccc3ccc(=O)oc3c2)nn1 [Compound 27e]

Return:
1: 9.8; 2: 9.2; 3: 9.6; 4: 9.7; 5: 9.1; 6: 10; 7: 8.8; 8: 9.8

Enquiry: # return recorded pKa for entry Cc1cc(=O)c(O)c(CO)n1CCn1cc(COc2cc(=O)oc3ccccc23)nn1 [Compound 27h]
Return: 9.1

====

Give measured Logβ1 for each item. Keep answers brief.
testMethodNotes: Determination of iron(III) affinity (Logβ1, Logβ2, Logβ3) by spectrophotometric titration
Type: physicochemical
appliedConditions: DMSO:KCl (0.1 M) = 2:3 (V/V), 25 °C; compound:iron 1.1:1
Answers are plain numbers.

Worked examples follow.
>  <compound>
CCc1c(O)c(=O)ccn1CCCn1cc(COc2cc3ccccc3oc2=O)nn1 [Compound 27j]

>  <Logβ1>
14.6

$$$$
>  <compound>
CCc1c(O)c(=O)ccn1CCCn1cc(COc2ccc3ccc(=O)oc3c2)nn1 [Compound 27e]

>  <Logβ1>
14.7

$$$$

For each entry beneath this line, provide reported Logβ1.
1. CCc1c(O)c(=O)ccn1CCCn1cc(COc2cc(=O)oc3ccccc23)nn1 [Compound 27g]
2. Cc1cc(=O)c(O)c(CO)n1CCCn1cc(COc2ccc3ccc(=O)oc3c2)nn1 [Compound 27b]
3. Cc1cc(=O)c(O)c(C)n1CCn1cc(COc2ccc3ccc(=O)oc3c2)nn1 [Compound 27c]
4. Cc1cc(=O)c(O)c(CO)n1CCn1cc(COc2cc(=O)oc3ccccc23)nn1 [Compound 27h]
5. Cc1cc(=O)c(O)c(CO)n1CCn1cc(COc2ccc3ccc(=O)oc3c2)nn1 [Compound 27a]
6. CCc1c(O)c(=O)ccn1CCn1cc(COc2cc3ccccc3oc2=O)nn1 [Compound 27i]
7. Cc1cc(=O)c(O)c(C)n1CCCn1cc(COc2ccc3ccc(=O)oc3c2)nn1 [Compound 27d]

Return:
1: 14.6; 2: 12.9; 3: 14.9; 4: 13.3; 5: 13.8; 6: 14.2; 7: 14.9

Data provenance: paper PMC6713216
